Hello, the source for this data is patent US6642398B2, in case you need it.

responders at 30 mg/kg reference
System: DBA/2 mice
Assay: Anticonvulsant % Protect (DBA2 mouse model of anticonvulsant efficacy)
Type: in vivo
Settings: Mus musculus; 30 mg/kg PO; 2 h; read-out: Anticonvulsant % Protect 2 h
A complete answer gives the number followed by the unit.

| Compound | Measurement label | Result |
| --- | --- | --- |
| CC(C)[C@@H](C)[C@@H](CN)CC(=O)O | responders at 30 mg/kg | 20% |

Report value only: responders at 30 mg/kg, DBA/2 mice, `CC(C)[C@@H](C)[C@H](CN)CC(=O)O` 100%

Report value only: responders at 30 mg/kg, DBA/2 mice, `CC[C@H](C)C[C@H](CN)CC(=O)O` 0%

Report value only: responders at 30 mg/kg, DBA/2 mice, `CC(C)[C@H](C)[C@H](CN)CC(=O)O` 0%
